- System: UACC-62 melanoma
- run.description: NCI tumour cell line growth inhibition, 48 h
Parameter TGI: see the listing below.

molecule	TGI
COc1ccc2c(CCN)c(C(=O)O)[nH]c2c1	> 100 µM

Checklist item: TGI tested on UACC-62 melanoma, entry `CCSc1sc(=Nc2ccc(N=c3sc(C)c(SC)s3)cc2)sc1-c1ccc(C)cc1` , value?
> 100 µM

Checklist item: TGI tested on UACC-62 melanoma, entry `COC(=O)NCCc1[nH]nc2c1C(=O)C=C(N1CCOCC1)C2=O` , value?
> 100 µM

Checklist item: TGI tested on UACC-62 melanoma, entry O=c1[nH]c(=O)n(C2OC(COP(=O)(O)OP(=O)(O)OC3OC(CO)C(O)C(O)C3O)C(O)C2O)cc1F (stereo not given) , value?
3.16 µM

Checklist item: TGI tested on UACC-62 melanoma, entry `FC(F)(F)c1nc2nc(Cl)c(Cl)nc2n1CCCN1CCOCC1` , value?
> 100 µM

----------
- Tested on: SN12C renal
- run.description: NCI tumour cell line growth inhibition, 48 h
Threshold rule: TGI greater than or equal to 20 µM is yes (1); below that, no (0).

molecule	label.class
[Cl][Hg][Cl]	yes (1)
COC(=O)C1=C(C(=O)OC)C(C(=O)c2ccc(Br)cc2)N2N=C(c3ccc(Cl)cc3)C=CC12 (stereo unspecified)	yes (1)
C=C(C)C(=O)O[C@H]1C[C@@]23O[C@@H]2CCC(=C[C@H]2OC(=O)C(=C)[C@H]12)COC3O (stereo partly specified)	yes (1)

Is TGI at least 20 µM? Consider CC(C(=O)c1ccccc1)C(c1ccccc1)N1CCOCC1 (stereo unspecified)
yes (1)

Is TGI at least 20 µM? Consider `C#CCOc1cccc(-c2ncnc3cc(NC(=O)CCl)ccc23)c1`
no (0)

Is TGI at least 20 µM? Consider `COC(=O)c1c(O)ccc2c1c1c(n2Cc2ccccc2Cl)C(=O)c2ccccc2C1=O`
yes (1)

Is TGI at least 20 µM? Consider `COC(=O)CCc1c[nH]c2ccc(N(CCCl)CCCl)cc12`
yes (1)

Is TGI at least 20 µM? Consider `Clc1nc(Cl)c2ncn(Cc3cccc(Cn4cnc5c(Cl)nc(Cl)nc54)c3)c2n1`
no (0)

Is TGI at least 20 µM? Consider COc1ccc2c(c1)N1CCc3cc(OC)c(OC)cc3C1C2 (stereo unspecified)
yes (1)

Is TGI at least 20 µM? Consider `N#CCc1n[nH]c(Cc2ccccc2)n1`
yes (1)

----------
Parameter TGI: see the listing below.
- System: NCI-H23 lung
- run.description: NCI tumour cell line growth inhibition, 48 h

Previously resolved entries follow.
molecule	TGI
O=S(=O)(c1ccccc1)n1c2ccc(Br)cc2c2nc3ccccc3nc21	> 100 µM
O=C1NC(SSC2=NNC3(C(=O)N2)c2ccccc2-c2ccccc23)=NNC12c1ccccc1-c1ccccc12	> 10 µM
Cc1ccc(N2Cc3c(ccc4ccccc34)OP2(=O)Oc2ccc(Cl)c(C)c2)cc1 (centres undefined)	> 100 µM
C1CCC2(CC1)O[C@@H]1[C@@H](O2)[C@@H](O[C@H]2O[C@@H]3COC4(CCCCC4)O[C@H]3[C@@H]3OC4(CCCCC4)O[C@@H]23)O[C@@H]2COC3(CCCCC3)O[C@@H]12	> 100 µM
Cc1nc(SCC(=O)Nc2nc(-c3ccc(Cl)cc3)cs2)n(Nc2ccccc2)c1C	6.02 µM
O=C(/C=C/c1ccc(O)cc1)c1ccc2c(c1)OCO2	39.2 µM
O=C(c1ccco1)N1CCCN(C(=O)c2ccco2)C1=S	> 100 µM
N[C@H](C(=O)O)[C@H]1ON=C(Cl)[C@@H]1O	> 550 µM
CC(=O)O[C@H]1CC[C@@]2(C)C(=CC[C@H]3[C@@H]4CC[C@H](c5cc(C(F)(F)F)n(C(C)=O)n5)[C@@]4(C)CC[C@@H]32)C1	28.6 µM
CC(C)OP(=O)(OC(C)C)/C(I)=N/Nc1ccc([N+](=O)[O-])cc1	> 100 µM

Quick one: TGI of `CN[C@H]1C=C[C@@H]2/C=C(C)/C=C/[C@@H](C)[C@H]([C@H](C)[C@H](O)[C@@H](C)NC(C)=O)OC(=O)/C=C/C=C(C)\C=C\[C@]2(C)C1` ?
> 49 µM

Quick one: TGI of `CC(C)(C)C(=O)c1c(C(F)(F)F)n([O-])c2ccccc2[n+]1=O` ?
2.39 µM

Quick one: TGI of `OCc1ccc(-c2ccc(-c3ccc(CO)o3)[se]2)o1` ?
> 100 µM

Quick one: TGI of CCCN(CCCC(NC(C)=O)C(=O)NCc1ccccc1)C(=O)N(CCCl)N=O (centres undefined) ?
22.9 µM

Quick one: TGI of `C#Cc1cccc(N2C(=O)CCC2=O)c1` ?
24.5 µM

----------
Parameter TGI: see the listing below.
- Tested on: OVCAR-8 ovarian
- run.description: NCI tumour cell line growth inhibition, 48 h

Previously resolved entries follow.
compound	property	obs.value
COC(=O)C1=C(C(=O)OC)C(C(=O)c2ccc(Br)cc2)N2N=C(c3ccc(Cl)cc3)C=CC12 (centres undefined)	TGI	> 100 µM
FC(F)c1nc2ccccc2n1-c1nc(N2CCOCC2)nc(N2CCOCC2)n1	TGI	> 100 µM
CC(C)(C)C(=O)c1c(C(F)(F)F)n([O-])c2ccccc2[n+]1=O	TGI	1.35 µM

Quick one: TGI of `Cc1ccc(N=N/C(=N\NC(=O)c2ccc(C)cc2)c2ccc(N(CCC#N)CCC#N)cc2C)cc1` ?
> 100 µM

Quick one: TGI of COC(=O)C1C/C(=C/N(C)C)C(=S)N1 (centres undefined) ?
> 100 µM

Quick one: TGI of `Cc1ccc(SC(CCC(Sc2ccc(C)cc2)Sc2ccc(C)cc2)Sc2ccc(C)cc2)cc1` ?
> 100 µM

----------
- Tested on: IGROV1 ovarian
- run.description: NCI tumour cell line growth inhibition, 48 h
Parameter TGI: see the listing below.
Kindly answer with a numeric value in µM, unit omitted.

Previously resolved entries follow.
molecule	unit	TGI
Fc1ccc2[nH]cc(-c3nonc3-c3c[nH]c4ccc(Br)cc34)c2c1	µM	18.3
CN(C)CC(C)(C)C(=O)/C=C/c1ccc(/C=C/C(=O)C(C)(C)CN(C)C)cc1	µM	3.33

Quick one: TGI of `Cc1ccc(-c2csc(/N=C3\C(=O)Nc4ccccc43)n2)cc1` ?
4.55

Quick one: TGI of `CCCC(=O)NC1=C(Cl)C(=O)c2ccccc2C1=O` ?
17.9

----------
- Test system: KM12 colon
- run.description: NCI tumour cell line growth inhibition, 48 h
property: TGI

compound	tested.on	obs.value
Cc1cc(S(=O)(=O)Nc2nc3cscc3c(=O)n2Cc2ccccc2)c(S)cc1Cl	KM12 colon	74.7 µM

Checklist item: TGI tested on KM12 colon, entry COCCCNC(=O)C1C(=O)N(CCCOC)C(=O)/C1=N\N (configuration not stated) , value?
> 100 µM

Checklist item: TGI tested on KM12 colon, entry COC(=O)C1Cc2c(OC)ccc(OC)c2CC(C(=O)OC)C1=O (configuration not stated) , value?
> 100 µM

Checklist item: TGI tested on KM12 colon, entry `COC(=O)/C=C\n1c(C)cc(=O)[nH]c1=O` , value?
> 100 µM

Checklist item: TGI tested on KM12 colon, entry `CC1(C)N=C(C(N)=O)c2ncn(N)c2N1` , value?
> 100 µM

Checklist item: TGI tested on KM12 colon, entry `O=C(c1ccc(Cl)cc1)c1ccc(OCCCOc2ccc(C(=O)c3ccc(Cl)cc3)cc2)cc1` , value?
> 100 µM

Checklist item: TGI tested on KM12 colon, entry `CN(C)CC(C)(C)C(=O)/C=C/c1ccc(/C=C/C(=O)C(C)(C)CN(C)C)cc1` , value?
3.25 µM

Checklist item: TGI tested on KM12 colon, entry CC[N+](CC)=c1sc2c(s1)C(c1ccc(Cl)cc1)Oc1ccc(Cl)cc1-2 (configuration not stated) , value?
1.91 µM

Checklist item: TGI tested on KM12 colon, entry `N#CCc1n[nH]c(Cc2ccccc2)n1` , value?
> 100 µM

----------
- Tested on: SNB-75 CNS
- run.description: NCI tumour cell line growth inhibition, 48 h
property: TGI

Previously resolved entries follow.
compound	tested.on	TGI
CCOC(=O)c1sc(-c2ccc(OS(=O)(=O)c3ccc(Br)s3)c(C=O)c2)nc1C	SNB-75 CNS	6.7 µM
COc1cc(C2c3cc4c(cc3[C@@H](Nc3ccccc3)C3COC[C@H]23)OCO4)cc(OC)c1O (stereo partly specified)	SNB-75 CNS	11.9 µM
CCN(Cc1cccc(F)c1)c1ccc(CO)c(Cl)c1	SNB-75 CNS	54 µM
[N-]=[N+]=C1N=CN=C1c1ncn[nH]1	SNB-75 CNS	> 100 µM
CC(=O)OCCCOCn1c(Cc2ccccc2)c(C)c(=O)[nH]c1=O	SNB-75 CNS	> 100 µM

Quick one: TGI of `CN(C)CC(C)(C)C(=O)/C=C/c1ccc(/C=C/C(=O)C(C)(C)CN(C)C)cc1` ?
3.05 µM

Quick one: TGI of Cc1ccc(C)c2c1C(O)(C#Cc1ccccc1)c1ccccc1C2(O)C#Cc1ccccc1 (stereo unspecified) ?
> 100 µM

Quick one: TGI of `O=C1c2ccccc2-c2c1c1c(=O)[nH]c3ccccc3c1n2Cc1ccccc1` ?
30.1 µM
